- protocolText: Half life in CD-1/Swiss Webster mouse at 30 mg/kg, po by LC/MS/MS analysis
- Format: ADME, organism-based
- Set-up: dose 30 mg/kg, route oral
- runConditions: in vivo
reportedEndpoint: half-life (h)
Give just the number in h; leave the unit off.

{"structureAsSmiles": "CCCCCCCCCCCCC[C@H](O)C[C@H](O)[C@H](C)NC", "half-life (h)": 12}

Note: attention shifts to another entry.
query: What measured half-life goes with "CCCCCCCCCCCCC[C@H](O)C[C@H](O)[C@H](C)N" ?
result: 5

* * *

- System: PC-3
- protocolText: Cytotoxicity against human PC3 cells after 24 hrs by WST-1 assay
- Format: functional, cell-based
- runConditions: PC-3, 24 h
reportedEndpoint: IC50 (µM)
Give just the number in µM; leave the unit off.

Examples with their reported IC50 follow.
{"structureAsSmiles": "CCCCCCCCCCCCC[C@@H](O)C[C@H](O)[C@H](C)N", "IC50 / µM": 10.2}
{"structureAsSmiles": "CCCCCCCCCCCCC[C@@H](O)C[C@@H](O)[C@H](C)N", "IC50 / µM": 49.3}
{"structureAsSmiles": "CCCCCCCCCCCCC[C@H](O)C[C@@H](O)[C@H](C)N", "IC50 / µM": 9.7}

query: What measured IC50 goes with "CCCCCCCCCCCCC[C@H](O)C[C@H](O)[C@H](C)N" ?
result: 10.3

query: Next entry: "CCCCCCCCCCCCC[C@H](O)C[C@H](O)[C@H](C)NC"
result: 10.5

* * *

- protocolText: Tmax in CD-1/Swiss Webster mouse at 30 mg/kg, po by LC/MS/MS analysis
- Type: ADME, organism-based
- Design: dose 30 mg/kg, route oral
- runConditions: in vivo
Tmax by entry:
Hi, when you answer, please include the unit after the number. Thanks!

{"structureAsSmiles": "CCCCCCCCCCCCC[C@H](O)C[C@H](O)[C@H](C)N", "reportedMeasurement": "2 h"}

Note: attention shifts to another entry.
query: What measured Tmax goes with "CCCCCCCCCCCCC[C@H](O)C[C@H](O)[C@H](C)NC" ?
result: 2 h

* * *

- protocolText: Apparent volume of distribution during terminal phase in CD-1/Swiss Webster mouse at 10 mg/kg, po by LC/MS/MS analysis
- Type: ADME, organism-based
- Design: dose 10 mg/kg, route oral
- runConditions: in vivo, read-out: Vz/F
Vd/F by entry:
Give just the number in L/kg; leave the unit off.

{"structureAsSmiles": "CCCCCCCCCCCCC[C@H](O)C[C@H](O)[C@H](C)N", "valueUnits": "L/kg", "Vd/F": 211}

Note: attention shifts to another entry.
query: What measured Vd/F goes with "CCCCCCCCCCCCC[C@H](O)C[C@H](O)[C@H](C)NC" ?
result: 117

* * *

AUC(0-t) by entry:
- protocolText: AUC (0 to t) in CD-1/Swiss Webster mouse at 30 mg/kg, po by LC/MS/MS analysis
- Format: ADME, organism-based
- Design: dose 30 mg/kg, route oral
- runConditions: plasma
Give just the number in µM·h; leave the unit off.

query: What measured AUC(0-t) goes with "CCCCCCCCCCCCC[C@H](O)C[C@H](O)[C@H](C)N" ?
result: 5.96

query: Next entry: "CCCCCCCCCCCCC[C@H](O)C[C@H](O)[C@H](C)NC"
result: 13.6
